- CONDITION_CONTEXT: in ethanol, 308.15 K
PARAMETER: solubility (mole fraction)

compound_smiles=CC(=O)Nc1ccc(OC(=O)c2ccccc2OC(C)=O)cc1 parameter="solubility (mole fraction)" readout_number=0.0012

###

- CONDITION_CONTEXT: in NMP, 298.15 K
PARAMETER: solubility (mole fraction)

compound_smiles=CC(=O)Nc1ccc(OC(=O)c2ccccc2OC(C)=O)cc1 parameter="solubility (mole fraction)" readout_number=0.0368

###

- CONDITION_CONTEXT: in NMP, 293.15 K
PARAMETER: solubility (mole fraction)

compound_smiles=CC(=O)Nc1ccc(OC(=O)c2ccccc2OC(C)=O)cc1 parameter="solubility (mole fraction)" result=0.0326
